experiment: qHTS assay to test for compound auto fluorescence at 590 nm (red) in HEK293 cell free culture (AID 720683); details: cell-free medium autofluorescence, Ex540/Em590 red; series mostly up to 91.3 µM; further: on the % scale 0 is the no-effect control and ±100 the full control effect
Activity calls are given as the source filed them. The call rests on the fitted dose curve; in most records, active means well fitted curve in the direction sought with a large enough effect in the repeat runs; inconclusive means weak or mixed curves; inactive means flat fitted curve, though single readings scatter.

molecule	fluorescence, % of fluorescent control
CC(C)CCCCCCCOP(=O)(Oc1ccccc1)Oc1ccccc1	inactive
Cc1c(Cl)c(=O)oc2cc(OP(=O)(OCCCl)OCCCl)ccc12	inactive
CCOCn1c(-c2ccc(Cl)cc2)c(C#N)c(Br)c1C(F)(F)F	inactive
CCN	inactive
C=CCC1=C(C)C(OC(=O)C2C(C=C(C)C)C2(C)C)CC1=O (stereo unspecified)	inactive
N#CNC#N	inactive
CC(C)[C@H](C(=O)O[C@H](C#N)c1cccc(Oc2ccccc2)c1)c1ccc(Cl)cc1	inactive
CC(=O)O[C@H]1CC[C@@]2(C)C(=CC[C@@H]3[C@@H]2CC[C@]2(C)C(=O)CC[C@@H]32)C1	inactive
Oc1ccc(C2(c3ccc(O)cc3)CCCCC2)cc1	inactive
CC(=O)/C=C/c1ccc2c(c1)OCO2	inactive
CC(C)N1C(=O)N(c2ccccc2)CSC1=NC(C)(C)C	inactive
CCCCCCCCCCCCCCCC[n+]1ccccc1	inactive
O=CC(Br)(Br)Br	inactive
N#CC(Cl)Cl	inactive
CCCCCCCCCCCCCN1CC(C)OC(C)C1 (stereo unspecified)	inactive
CNC(C)Cc1ccc2c(c1)OCO2 (stereo unspecified)	inactive
C[C@@H]1O[C@@H](O[C@@H]2C=C3CC[C@@H]4[C@H](CC[C@]5(C)[C@@H](c6ccc(=O)oc6)CC[C@]45O)[C@@]3(C)CC2)[C@H](O)[C@H](O)[C@H]1O	-0.024% [at 18.6 µM] (inactive)
Clc1ccc(C(c2ccc(Cl)cc2)C(Cl)(Cl)Cl)cc1	inactive
O=C(CBr)c1ccc(O)cc1	inactive
CCCCCCCCCCCCCCC(Br)C(=O)O (stereo unspecified)	inactive
COc1cccc(C(=O)CCN[C@@H](C)[C@H](O)c2ccccc2)c1	inactive
CCCN(CC)CC1COC2(CCC(C(C)(C)C)CC2)O1 (stereo unspecified)	inactive
CC(=O)[O-].[Tl+]	inactive
Nc1ccc(Cc2ccc(N)c(Cl)c2)cc1Cl	inactive
CC1CCC(C(C)C)C(OC(=O)c2ccccc2N)C1 (stereo unspecified)	inactive
CCCCCCCCc1ccc(O)cc1	inactive
CN(C)CCc1c[nH]c2cccc(O)c12	inactive
CCCCOCN(C(=O)CCl)c1c(CC)cccc1CC	inactive
Oc1ccc(C(=C(Cl)Cl)c2ccc(O)cc2)cc1	inactive
O=[N+]([O-])O.O=[N+]([O-])O.[Cd]	inactive
CC(C)OC(=O)C(O)(c1ccc(Cl)cc1)c1ccc(Cl)cc1	inactive
C[C@H]1CC[C@@H]2[C@@H](C)[C@H]3[C@H](C[C@H]4[C@@H]5CC=C6CC(O[C@@H]7O[C@H](CO)[C@H](O)[C@H](O[C@@H]8O[C@H](CO)[C@@H](O)[C@H](O)[C@H]8O)[C@H]7O[C@H]7O[C@@H](C)[C@H](O)[C@@H](O)[C@H]7O)CC[C@]6(C)[C@H]5CC[C@]34C)N2C1 (stereo partly specified)	inactive
CC(C)OC(=S)S	inactive
O=C(CCl)Nc1ccccc1	inactive
C=CC(=O)OCCCCOC(=O)C=C	inactive
Clc1ccc(COC(Cn2ccnc2)c2ccc(Cl)cc2Cl)cc1 (stereo unspecified)	inactive
CCC(C)(C)C(=O)OC1=C(c2ccc(Cl)cc2Cl)C(=O)OC12CCCCC2	inactive
NNC(=O)c1ccccc1	inactive
FC(F)(F)c1cccc(C2=CCN(CCc3ccc4ccccc4c3)CC2)c1	inactive
CC(C)C1CCC(Cc2ccc(Cl)cc2)C1(O)Cn1cncn1 (stereo unspecified)	inactive
CCCCCCCCCBr	inactive
